Assay: Mouse pharmacokinetics
Type: in vivo, Mouse (male, CD1)
Conditions: male, CD1, mouse, whole blood, iv, 1 mg/kg
outcome.measure: clearance

Query string: Tell me the measured clearance of C[C@H]1CN(c2n[nH]c3nc(N[C@H]4CC[C@H](NS(=O)(=O)CCC(F)(F)F)CC4)ncc23)CCO1 , please.
Result string: 10.1 L/h/kg

---

Assay: Mouse pharmacokinetics
Format: in vivo, Mouse (male, CD1)
Conditions: male, CD1, mouse, whole blood, po, 300 mg/kg
outcome.measure: AUC(0-inf) (ng·h/mL)
Supply the numeric figure in ng·h/mL, leaving out any unit text.

Query string: Tell me the measured AUC(0-inf) of C[C@H]1CN(c2n[nH]c3nc(N[C@H]4CC[C@H](NS(=O)(=O)CCC(F)(F)F)CC4)ncc23)CCO1 , please.
Result string: 66200

All values here come from paper PMC6402543.
